# measured-target: haematopoietic prostaglandin D synthase (H-PGDS) (Homo sapiens)
# Construct: Full length human H-PGDS cDNA (Invitrogen Ultimate ORF 10H13026) was amplified by PCR; 6-His (N); TEV protease cleavage site (N); made in house; host or cells: E. coli BL21 (DE3*), vector pET22b+
# assay-remarks: H-PGDS RapidFire high throughput mass spectrometry assay (conversion of PGH2 to PGD2)
# Type: biochemical
# condition-details: 10 nM H-PGDS, PGH2 formed in situ by COX-2 from arachidonic acid; read-out: Potency Range (mean pIC50) (converted)
endpoint: IC50

Below are worked cases with known answers.
• CC(C)(O)c1csc(NC(=O)[C@H]2C[C@H](Oc3cccc4scnc34)C2)n1 = 10 to 79.4 nM
• CCOC(=O)NC12CC(NC(=O)[C@H]3C[C@H](Oc4cccc5scnc45)C3)(C1)C2 = 10 to 79.4 nM

Any idea what IC50 was measured for `CC(=O)c1csc(NC(=O)[C@H]2C[C@H](Oc3cc(F)ccc3OC(F)F)C2)n1` ?
< 10 nM

---

# measured-target: haematopoietic prostaglandin D synthase (H-PGDS) (Homo sapiens, UniProt O60760)
# Construct: Full length human H-PGDS cDNA (Invitrogen Ultimate ORF 10H13026) was amplified by PCR; 6-His (N); TEV protease cleavage site (N); made in house; host or cells: E. coli BL21 (DE3*), vector pET22b+
# Sequence (O60760 whole entry): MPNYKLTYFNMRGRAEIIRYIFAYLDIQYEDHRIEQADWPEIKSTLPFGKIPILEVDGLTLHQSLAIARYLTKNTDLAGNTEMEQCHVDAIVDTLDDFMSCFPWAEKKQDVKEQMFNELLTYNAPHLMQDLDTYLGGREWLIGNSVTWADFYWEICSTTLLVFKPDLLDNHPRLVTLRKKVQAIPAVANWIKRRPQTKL
# assay-remarks: H-PGDS RapidFire high throughput mass spectrometry assay (conversion of PGH2 to PGD2)
# Type: biochemical
# condition-details: 10 nM H-PGDS, PGH2 formed in situ by COX-2 from arachidonic acid; read-out: Potency Range (mean pIC50) (converted)
# maps each entry to its IC50

Below are worked cases with known answers.
- COc1ccc(F)cc1O[C@H]1C[C@H](C(=O)NC2CC3(C2)CN(c2cc(C#N)ccn2)C3)C1 [Example 148]: 10 to 79.4 nM
- CC(C)(O)[C@H]1CC[C@H](NC(=O)N2CC(Oc3cc(F)ccc3OC(F)F)C2)CC1 [Example 1]: 100 to 1000 nM
- O=C(Nc1ncc(CO)s1)[C@H]1C[C@H](Oc2cc(F)ccc2OC(F)F)C1 [Example 12]: 10 to 79.4 nM
- O=C(NC1CCN(c2ccccn2)CC1)N1CC(Oc2cccc3scnc23)C1 [Example 88]: 10 to 79.4 nM
- O=C(NC1CN(c2ncc(F)cn2)C1)[C@H]1C[C@H](Oc2cc(F)ccc2OC(F)F)C1 [Example 8]: 10 to 79.4 nM

Any idea what IC50 was measured for N#Cc1ccc(N2CC(NC(=O)[C@H]3C[C@H](Oc4cccc5scnc45)C3)C2)nc1 [Example 37] ?
10 to 79.4 nM

Any idea what IC50 was measured for COc1ccc(F)cc1O[C@H]1C[C@H](C(=O)NC2CCN(c3ccccn3)CC2)C1 [Example 157] ?
10 to 79.4 nM

---

# measured-target: haematopoietic prostaglandin D synthase (H-PGDS) (Homo sapiens)
# Construct: Full length human H-PGDS cDNA (Invitrogen Ultimate ORF 10H13026) was amplified by PCR; 6-His (N); TEV protease cleavage site (N); made in house; host or cells: E. coli BL21 (DE3*), vector pET22b+
# assay-remarks: H-PGDS RapidFire high throughput mass spectrometry assay (conversion of PGH2 to PGD2)
# Format: biochemical
# condition-details: 10 nM H-PGDS, PGH2 formed in situ by COX-2 from arachidonic acid; read-out: Potency Range (mean pIC50) (converted)
# maps each entry to its IC50

Below are worked cases with known answers.
* CC(C)(O)[C@H]1CC[C@H](NC(=O)[C@H]2C[C@H](Oc3cc(F)cc(F)c3)C2)CC1 | 100 to 1000 nM
* Cc1nc(NC(=O)[C@H]2C[C@H](Oc3cccc4cccnc34)C2)oc1C | 10 to 79.4 nM
* COc1ccc(Cl)cc1O[C@H]1C[C@H](C(=O)N[C@H]2CC[C@H](C(C)(C)O)CC2)C1 | 10 to 79.4 nM
* C[C@]1(O)CC[C@H](NC(=O)N2CC(Oc3cccc4scnc34)C2)CC1 | 100 to 1000 nM
* O=C(NC1CN(c2nccc(Cl)n2)C1)[C@H]1C[C@H](Oc2cc(F)ccc2OC(F)F)C1 | < 10 nM
* COc1ccc(F)cc1O[C@H]1C[C@H](C(=O)NC2CCN(C(=O)OC(C)(C)C)C2)C1 (mixture of isomers) | 10 to 79.4 nM
* COc1ccc(F)cc1O[C@H]1C[C@H](C(=O)Nc2ncc(C(C)=O)s2)C1 | < 10 nM
* O=C(Nc1ccncc1)N1CC(Oc2cccc3scnc23)C1 | 100 to 1000 nM
* CC(C)(O)C1CC2(CC(NC(=O)[C@H]3C[C@H](Oc4cccc5scnc45)C3)C2)C1 (mixture of isomers) | 10 to 79.4 nM
* CC(C)(O)[C@H]1CC[C@H](NC(=O)[C@H]2C[C@H](Oc3cccc(F)c3)C2)CC1 | 100 to 1000 nM

Any idea what IC50 was measured for `COc1ccccc1O[C@H]1C[C@H](C(=O)N[C@H]2CC[C@H](C(C)(C)O)CC2)C1` ?
10 to 79.4 nM

Any idea what IC50 was measured for COc1ccc(F)cc1O[C@H]1C[C@H](C(=O)NC2CCN(c3ncc(C#N)s3)C2)C1 (mixture of isomers) ?
10 to 79.4 nM

Any idea what IC50 was measured for `O=C(Nc1nccs1)[C@H]1C[C@H](Oc2cc(F)cc3cccnc23)C1` ?
10 to 79.4 nM

Any idea what IC50 was measured for `CC(C)(O)[C@H]1CC[C@H](NC(=S)N2CC(Oc3cccc4scnc34)C2)CC1` ?
10 to 79.4 nM

Any idea what IC50 was measured for `O=C(NC1CN(c2nccc(Cl)n2)C1)[C@H]1C[C@H](Oc2cccc3scnc23)C1` ?
10 to 79.4 nM

Any idea what IC50 was measured for COc1ccc(F)cc1O[C@H]1C[C@H](C(=O)NC2CC3(C2)CC(C(C)(C)O)C3)C1 (mixture of isomers) ?
< 10 nM

Any idea what IC50 was measured for `COCCO[C@H]1CC[C@H](NC(=O)[C@H]2C[C@H](Oc3cccc4scnc34)C2)CC1` ?
100 to 1000 nM

Any idea what IC50 was measured for CC(O)(CO[C@H]1CC[C@H](NC(=O)[C@H]2C[C@H](Oc3cc(F)ccc3OC(F)F)C2)CC1)C1CC1 (mixture of isomers) ?
10 to 79.4 nM

Any idea what IC50 was measured for `CC(C)(O)[C@H]1CC[C@H](NC(=O)[C@H]2C[C@H](Oc3cccc4scnc34)C2)CC1` ?
10 to 79.4 nM
